- Target system: LF (Bacillus anthracis)
- Sequence (P15917 34-809 limits assumed): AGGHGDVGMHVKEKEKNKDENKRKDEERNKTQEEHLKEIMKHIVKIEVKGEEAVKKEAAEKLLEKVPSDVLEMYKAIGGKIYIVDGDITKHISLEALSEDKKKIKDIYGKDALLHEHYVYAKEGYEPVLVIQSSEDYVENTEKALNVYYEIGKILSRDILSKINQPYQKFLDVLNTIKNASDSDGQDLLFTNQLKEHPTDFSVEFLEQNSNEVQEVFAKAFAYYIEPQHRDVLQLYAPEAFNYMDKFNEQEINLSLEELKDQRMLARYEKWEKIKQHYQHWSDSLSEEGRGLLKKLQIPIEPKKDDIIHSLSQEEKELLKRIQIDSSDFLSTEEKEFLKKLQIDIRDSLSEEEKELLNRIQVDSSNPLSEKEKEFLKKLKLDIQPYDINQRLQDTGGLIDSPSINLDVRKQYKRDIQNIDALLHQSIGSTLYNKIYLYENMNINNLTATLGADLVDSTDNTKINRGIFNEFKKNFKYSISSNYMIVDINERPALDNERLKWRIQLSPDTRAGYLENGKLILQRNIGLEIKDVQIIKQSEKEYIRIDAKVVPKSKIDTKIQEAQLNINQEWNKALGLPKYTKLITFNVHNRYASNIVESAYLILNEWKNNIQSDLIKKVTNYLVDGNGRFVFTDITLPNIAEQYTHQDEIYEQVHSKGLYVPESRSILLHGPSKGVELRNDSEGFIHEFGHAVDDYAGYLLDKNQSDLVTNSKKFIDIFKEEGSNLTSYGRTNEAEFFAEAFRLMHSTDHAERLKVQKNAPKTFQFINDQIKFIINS
- Assay: biochemical
- Set-up: species or system B. anthracis
- Run conditions: read-out: Average IC50 against LF
Endpoint name: IC50 (mM)
I only need the number, in mM, no unit after it.

CC(=O)NO [AHA (N-hydroxyacetamide), N-hydroxyacetamide, reference compound]	11.4

Okay, now this compound:
Prompt: GET /values?readout=IC50&item= `On1ccccc1=S`
Response: 3.9

###

pIC50 tested on human MMP-2 catalytic domain (Homo sapiens, UniProt P08253): recorded values
Sequence (P08253 110-452): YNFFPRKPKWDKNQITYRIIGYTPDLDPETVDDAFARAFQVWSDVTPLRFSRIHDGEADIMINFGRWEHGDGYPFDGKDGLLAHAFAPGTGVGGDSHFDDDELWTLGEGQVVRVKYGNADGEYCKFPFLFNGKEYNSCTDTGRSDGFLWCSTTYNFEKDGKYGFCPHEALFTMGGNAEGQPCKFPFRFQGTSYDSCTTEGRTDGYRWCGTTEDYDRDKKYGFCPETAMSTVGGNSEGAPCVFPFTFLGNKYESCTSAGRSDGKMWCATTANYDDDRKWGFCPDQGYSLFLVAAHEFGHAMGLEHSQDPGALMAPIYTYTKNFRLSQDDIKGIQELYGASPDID
Would you please state pIC50, meaning minus log10 of the concentration in mol/L, as a bare number?

Sample records with pIC50:
Cc1cc(=O)c(O)c(C(=O)NCc2ccc(-c3ccccc3)cc2)o1	5.03
O=C(NCc1ccc(-c2ccccc2)cc1)c1cccc(=O)n1O	6.05

Okay, now this compound:
Prompt: For human MMP-2 catalytic domain (Homo sapiens, UniProt P08253), provide pIC50 of `Cc1cc(=O)c(O)c(C(=O)Nc2ccc(-c3ccccc3)cc2)o1` please.
Response: 4.44

###

- Target system: human MMP-1 catalytic domain (Homo sapiens)
- Sequence (P03956 100-268): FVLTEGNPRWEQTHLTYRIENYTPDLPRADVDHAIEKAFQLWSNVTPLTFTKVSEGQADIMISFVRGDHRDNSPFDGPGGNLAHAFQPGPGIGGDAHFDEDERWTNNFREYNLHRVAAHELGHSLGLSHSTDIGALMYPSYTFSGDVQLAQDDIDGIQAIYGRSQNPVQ
pIC50: −log10 of the molar value.
This listing pairs compounds with measured pIC50.

Prompt: GET /values?readout=pIC50&item= `COc1ccc(CNC(=O)c2oc(C)cc(=O)c2O)cc1`
Response: < 4.30

Prompt: GET /values?readout=pIC50&item= `Cc1cc(=O)c(O)c(C(=O)NCc2ccc(-c3ccc(C#N)cc3)cc2)o1`
Response: < 4.30

Prompt: GET /values?readout=pIC50&item= `Cc1cc(=O)c(O)c(C(=O)NCCc2ccc(-c3ccccc3)cc2)o1`
Response: < 4.30

###

- Target system: LF (Bacillus anthracis)
- Assay: biochemical
- Set-up: species or system B. anthracis
Endpoint name: pIC50
Would you please state pIC50, meaning minus log10 of the concentration in mol/L, as a bare number?

Sample records with pIC50:
O=C(NCc1ccc(-c2ccccc2)cc1)c1occc(=S)c1O	4.42
Cc1occc(=S)c1O	3.59

Okay, now this compound:
Prompt: GET /values?readout=pIC50&item= `O=C(NCCc1ccc(-c2ccccc2)cc1)c1occc(=S)c1O`
Response: 4.73

###

- Target system: HDAC
- Assay: Inhibition of histone deacetylase (HDAC)
- Run conditions: read-out: Average IC50 against HDAC
Endpoint name: IC50 (µM)
I only need the number, in µM, no unit after it.

Sample records with IC50:
Cc1occc(=S)c1O	247
On1ccccc1=S	860

Prompt: GET /values?readout=IC50&item= CC(=O)NO [AHA (N-hydroxyacetamide), N-hydroxyacetamide, reference compound]
Response: 3200
